meta.source: patent US20250026827A1

biological target: T1, human SIRPβ1 domain 1 (D1) Fc fusion (human, UniProt O00241 30-148); assay: Octet, Fab monovalent
T1 construct: Made in HEK293/T cells with a heterologous signal peptide; also called Human SIRPβ1 D1-Fc; Human SIRPβ1-Fc; not shown: C-terminal human IgG1 Fc
T1 sequence (O00241 30-148 limits assumed): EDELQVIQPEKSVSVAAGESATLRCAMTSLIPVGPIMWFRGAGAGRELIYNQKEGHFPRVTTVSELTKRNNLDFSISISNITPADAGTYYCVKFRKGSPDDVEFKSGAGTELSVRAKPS
quantity: pKd
Keep in mind that pKd stands for -log10 of concentration in molar terms.

SB-1-3 Fab (Fab, V domains shown, Fab by papain digestion) VH: EVQLVESGGGLVKPGGSLRLSCAASGFTFSAYGMNWVRQAPGKGLEWVSAITSSGRSTYYADSVKGRFTISRDNSKNTLYLQMNSLRAEDTAVYYCAKDFTEVVGWLGMDVWGQGTTVTVSS VL: EIVMTQSPGTLSLSPGERATLSCRASQSVSSSYLAWYQQKPGQAPRLLIYGASSRATGIPDRFSGSGSGTDFTLTISRLEPEDFAVYYCQLLGSSPRTFGGGTKVEIK :: 7.34
SB-8-14 Fab (Fab, V domains shown, Fab by papain digestion) VH: QVQLQESGPGLVKPSETLSLTCAVSGYSISPHYYWGWIRQPPGKGLEWIGSIYHSGHTYYNPSLKSRVTISVDTSKNQFSLKLSSVTAADTAVYYCARGGAMTPAGMDVWGQGTTVTVSS VL: EIVMTQSPGTLSLSPGERATLSCRASQSVSSSYLAWYQQKPGQAPRLLIYGASNRATGIPDRFSGSGSGTDFTLTISRLEPEDFAVYYCQQVYSSPYTFGGGTKVEIK :: 8.49
SB-40-18 Fab (Fab, V domains shown, Fab by papain digestion) VH: QVQLVQSGAEVKKPGASVKVSCKASGYTFTSYYMAWVRQAPGQRLEWMGWINPAVGATIYSQKFQGRVTITRDTSASTAYMELSSLRSEDTAVYYCARDTGEYSYSPHGMDVWGQGTTVTVSS VL: EIVLTQSPATLSLSPGERATLSCRASQSVSSYLAWYQQKPGQAPRLLIYDSSNRATGIPARFSGSGSGTDFTLTISSLEPEDFAVYYCQQRDEHPPWTFGGGTKVEIK :: 7.74
SB-2-9 Fab (Fab, V domains shown, Fab by papain digestion) VH: QVQLVESGGGVVQPGRSLRLSCAASGFTFKTYGMHWVRQAPGKGLEWVAHIWYEGSNKVYADSVKGRFTISRDNSKNTLYLQMNSLRAEDTAVYYCARDQTAAAAIWGMDVWGQGTTVTVSS VL: EVVLTQSPGTLSLSPGERATLSCRASQSVSSSYLAWYQQKPGQAPRLLIYGASSRATGIPDRFSGSGSGTDFTLTISRLEPEDFAVYYCQQSSSHPFTFGGGTKVEIK :: 7.72

Now for a further binder.
(Q) State the recorded pKd for this entry: SB-2-11 Fab (Fab, V domains shown, Fab by papain digestion) VH: QVQLVESGGGLVQPGGSLRLSCAASGFTFARYGMHWVRQAPGKGLEWVSAISGLAGPTYADSVKGRFTISRDNSKNTLYLQMNSLRAEDTAVYYCARDQTAAWGIWGMDVWGQGTTVTVSS VL: EIVLTQSPGTLSLSPGERATLSCRASQSVSSSYLAWYQQKPGQAPRLLIYGASSRATGIPDRFSGSGSGTDFTLTISRLEPEDFAVYYCQQSSSHPFTFGGGTKVEIK
(A) 8.36
